Just for reference, patent US4762848A is where these values come from.

# Tested on: macrophages
# Procedure Summary: Stimulation of macrophage activity (exocytosis / lysosomal enzyme activity), relative to the compound from Example 7
# Assay type: in vivo, NMRI mice
# Assay Context: 100 mg/kg, 1 × i.p. day 0; relative to Example 7 = 100%
Recorded measurements of Macrophage activity: Exocytosis, relative activity, one per entry
Could you give me the number in %? Just the number is fine.

Input: Reported Macrophage activity: Exocytosis, relative activity, molecule `Cc1nc(SCCCC(=O)O)sc1C(=O)O` : ____
Output: 148

Input: For `O=C(O)CSc1scnc1C(=O)O` , what is its reported Macrophage activity: Exocytosis, relative activity?
Output: 172
